- system-under-test: MycN protein (Homo sapiens, UniProt P04198)
- Construct: either 2×10^6 of L-363 (human leukemia cell line) or SKNBE2 (neuroblastoma cell line) cells; endogenous in cells; host or cells: SKNBE2 / SK-N-BE(2) neuroblastoma cells
- assay-method-text: Degradation of MycN protein, Western blot, SKNBE2 cells (Example 160)
- Format: cell-based
- measurement-parameters: SKNBE2, 6 h
We begin with a simple list: items and their reported inhibition at 2 µM.
measured-endpoint: inhibition at 2 µM

> print(dat)
                                smiles.text    measured
1  CN(c1nccc(Nc2cc(C3CC3)[nH]n2)n1)[C@H]1CC[C@H](NC(=O)c2cn(CC3(C)COC3)nn2)CC1  80 to 100%
2  CN(c1nccc(Nc2cc(C3CC3)[nH]n2)n1)[C@H]1CC[C@H](NC(=O)c2cccc(S(C)(=O)=O)c2)CC1  80 to 100%
3  CN(c1nccc(Nc2cc(C3CC3)[nH]n2)n1)[C@H]1CC[C@H](NC(=O)c2cn3ccccc3n2)CC1  80 to 100%
4  CN(c1nccc(Nc2cc(C3CC3)[nH]n2)n1)[C@H]1CC[C@H](NC(=O)N2CCn3nc(C(F)(F)F)nc3C2)CC1  80 to 100%
5  CN(c1nccc(Nc2cc(C3CC3)[nH]n2)n1)[C@H]1CC[C@H](NS(=O)(=O)c2cccc(S(C)(=O)=O)c2)CC1  80 to 100%
6  CN(c1nccc(Nc2cc(C3CC3)[nH]n2)n1)[C@H]1CC[C@H](NS(=O)(=O)Cc2cccc(C(F)(F)F)c2)CC1  80 to 100%
7  CN(c1nccc(Nc2cc(C3CC3)[nH]n2)n1)[C@H]1CC[C@H](NC(=O)c2cn3cccnc3n2)CC1  80 to 100%

====

- system-under-test: MycC protein (c-myc) (Homo sapiens, UniProt P01106)
- Construct: either 2×10^6 of L-363 (human leukemia cell line) cells; endogenous in cells; host or cells: L-363 / L363 human leukemia cells
- Sequence (P01106 whole entry): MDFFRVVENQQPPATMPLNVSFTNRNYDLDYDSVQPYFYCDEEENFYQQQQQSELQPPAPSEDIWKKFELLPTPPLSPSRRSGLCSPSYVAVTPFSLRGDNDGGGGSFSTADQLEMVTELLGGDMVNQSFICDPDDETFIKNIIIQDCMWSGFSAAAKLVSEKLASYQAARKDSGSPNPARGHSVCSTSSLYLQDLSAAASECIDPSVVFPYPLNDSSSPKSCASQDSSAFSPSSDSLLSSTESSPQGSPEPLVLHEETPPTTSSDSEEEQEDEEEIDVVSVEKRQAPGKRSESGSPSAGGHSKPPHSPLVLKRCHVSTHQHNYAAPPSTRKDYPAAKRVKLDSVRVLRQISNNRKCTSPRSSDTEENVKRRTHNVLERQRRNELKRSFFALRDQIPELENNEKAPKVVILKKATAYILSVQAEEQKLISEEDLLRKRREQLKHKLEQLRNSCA
- assay-method-text: Degradation of MycC protein, 24 h treatment, JESS Western, L363 cells (Example 161)
- Assay type: cell-based
- measurement-parameters: L-363 cells, 1 μM
measured-endpoint: inhibition at 1 µM

> print(dat)
                                smiles.text                         system.under.test    measured
1  CN(c1nccc(Nc2cc(C3CCCC3)[nH]n2)n1)C1CCNCC1  MycC protein (c-myc) (Homo sapiens, UniProt P01106)  80 to 100%
2  CN(c1nccc(Nc2cc(C3CCCC3)[nH]n2)n1)C1CCN(C2CC2)CC1  MycC protein (c-myc) (Homo sapiens, UniProt P01106)  80 to 100%
3  CN(c1nccc(Nc2cc(C3CC3)[nH]n2)n1)C1CC2(C1)CN(Cc1ccccc1F)C2  MycC protein (c-myc) (Homo sapiens, UniProt P01106)   20 to 49%
4  CN(c1nccc(Nc2cc(C3CC3)[nH]n2)n1)C1CCN(Cc2cccc(S(C)(=O)=O)c2)CC1  MycC protein (c-myc) (Homo sapiens, UniProt P01106)   50 to 79%

====

We begin with a simple list: items and their reported inhibition at 2 µM.
- system-under-test: MycN protein (Homo sapiens)
- Construct: either 2×10^6 of L-363 (human leukemia cell line) or SKNBE2 (neuroblastoma cell line) cells; endogenous in cells; host or cells: SKNBE2 / SK-N-BE(2) neuroblastoma cells
- assay-method-text: Degradation of MycN protein, Western blot, SKNBE2 cells (Example 160)
- Format: cell-based
- measurement-parameters: 6 h
measured-endpoint: inhibition at 2 µM

> print(dat)
                                   molecule            system.under.test    measured
1  CC(C(=O)Nc1cccc(S(C)(=O)=O)c1)N1CCC(N(C)c2nccc(Nc3cc(C4CC4)[nH]n3)n2)CC1 (stereo not shown) [Compound 9]  MycN protein (Homo sapiens)  80 to 100%
2  CN(c1nccc(Nc2cc(C3CC3)[nH]n2)n1)[C@H]1CC[C@H](NS(=O)(=O)c2ccc(C#N)cn2)CC1 [Compound 156]  MycN protein (Homo sapiens)   50 to 79%
3  CN(c1nccc(Nc2cc(C3CCCC3)[nH]n2)n1)C1CCC(CC(=O)NC2Cc3ccc(C#N)cc3C2)CC1 (stereo not shown) [Compound 102]  MycN protein (Homo sapiens)  80 to 100%
4  CN(c1nccc(Nc2cc(C3CC3)[nH]n2)n1)C1CCN(CC(=O)Nc2cccc(C(F)(F)F)c2)CC1 [Compound 1]  MycN protein (Homo sapiens)   50 to 79%

====

- system-under-test: MycN protein (n-myc) (Homo sapiens)
- Construct: either 2×10^6 of L-363 (human leukemia cell line) or SKNBE2 (neuroblastoma cell line) cells; endogenous in cells; host or cells: SKNBE2 / SK-N-BE(2) neuroblastoma cells
- assay-method-text: Degradation of MycN protein, 24 h treatment, JESS Western, SK-N-BE(2) cells (Example 161)
- Assay type: cell-based
- measurement-parameters: SKNBE2 cells, 1 μM
measured-endpoint: inhibition at 1 µM

> print(dat)
                                smiles.text                    system.under.test   measured
1  CN(c1nccc(Nc2cc(C3CC3)[nH]n2)n1)C1CC2(C1)CN(CCCc1nc3ccccc3o1)C2  MycN protein (n-myc) (Homo sapiens)  20 to 49%
2  CN(c1nccc(Nc2cc(C3CC3)[nH]n2)n1)C1CCN(Cc2cc(F)cc(F)c2)CC1  MycN protein (n-myc) (Homo sapiens)  20 to 49%
3  CN(c1nccc(Nc2cc(C3CC3)[nH]n2)n1)C1CCN(C2CC2)CC1  MycN protein (n-myc) (Homo sapiens)  50 to 79%
4  CN1CC2(CC(Nc3nccc(Nc4cc(C5CC5)[nH]n4)n3)C2)C1  MycN protein (n-myc) (Homo sapiens)  20 to 49%

====

- system-under-test: MycN protein (n-myc) (Homo sapiens)
- Construct: either 2×10^6 of L-363 (human leukemia cell line) or SKNBE2 (neuroblastoma cell line) cells; endogenous in cells; host or cells: SKNBE2 / SK-N-BE(2) neuroblastoma cells
- Sequence (P04198 1-464): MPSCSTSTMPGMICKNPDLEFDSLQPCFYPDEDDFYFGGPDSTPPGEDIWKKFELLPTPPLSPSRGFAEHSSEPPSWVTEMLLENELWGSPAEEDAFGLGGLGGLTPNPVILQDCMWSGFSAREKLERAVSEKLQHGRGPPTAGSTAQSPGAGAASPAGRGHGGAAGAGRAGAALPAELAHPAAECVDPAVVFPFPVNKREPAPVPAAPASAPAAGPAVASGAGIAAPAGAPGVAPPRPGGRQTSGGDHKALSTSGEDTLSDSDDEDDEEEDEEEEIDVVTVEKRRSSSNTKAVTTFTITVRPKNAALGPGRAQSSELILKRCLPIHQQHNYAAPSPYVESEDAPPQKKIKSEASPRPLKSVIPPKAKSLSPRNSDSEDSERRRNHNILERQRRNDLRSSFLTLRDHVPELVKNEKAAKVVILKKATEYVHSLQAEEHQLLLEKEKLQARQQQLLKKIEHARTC
- assay-method-text: Degradation of MycN protein, 24 h treatment, JESS Western, SK-N-BE(2) cells (Example 161)
- Assay type: cell-based
- measurement-parameters: SKNBE2 cells, 6 μM
measured-endpoint: inhibition at 6 µM

> print(dat)
                                   molecule                    system.under.test    measured
1  CN(c1nccc(Nc2cc(C3CC3)[nH]n2)n1)C1CC2(C1)CN(Cc1cc(F)cc(F)c1)C2 [Compound 26]  MycN protein (n-myc) (Homo sapiens)   20 to 49%
2  CN(c1nccc(Nc2cc(C3CC3)[nH]n2)n1)C1CC2(C1)CN(S(=O)(=O)c1cn3c(n1)CCCC3)C2 [Compound 36]  MycN protein (n-myc) (Homo sapiens)       < 20%
3  CN(c1nccc(Nc2cc(C3CC3)[nH]n2)n1)C1CC2(C1)CN(C(=O)C1CCOCC1)C2 [Compound 32]  MycN protein (n-myc) (Homo sapiens)  80 to 100%
4  CN1CC2(CC(N(C)c3nccc(Nc4cc(C5CC5)[nH]n4)n3)C2)C1 [Compound 7]  MycN protein (n-myc) (Homo sapiens)  80 to 100%
5  CN(c1nccc(Nc2cc(C3CCCC3)[nH]n2)n1)C1CCNCC1 [Compound 18]  MycN protein (n-myc) (Homo sapiens)  80 to 100%
6  CN(c1nccc(Nc2cc(C3CC3)[nH]n2)n1)C1CC2(C1)CN(CC1CCOCC1)C2 [Compound 20]  MycN protein (n-myc) (Homo sapiens)   50 to 79%
7  CN(c1nccc(Nc2cc(C3CC3)[nH]n2)n1)C1CCN(Cc2cc(F)cc(F)c2)CC1 [Compound 40]  MycN protein (n-myc) (Homo sapiens)  80 to 100%
